Test system: Plasmodium berghei
assay-comment: Screen against P. berghei liver stage (PbLuc), transformed with Luciferase, at 10uM
Type: functional, HepG2
assay-context: tested at 10 uM
In all, about 69,000 compounds went through this assay and about 8,600 (12%) showed an effect of 50% or more. Only a selection was taken, and strong results are over-represented in it overall.
INHIBITION overview
Give the value in % but do not write % after it.

Before answering, review these 3 worked examples.
Cn1cc([C@@H]2CN(S(=O)(=O)c3ccccc3F)C[C@H]2N)c2ccncc21 18
COc1cc(N2C[C@@H]3COC[C@@H](Cc4nc(C)no4)[C@@H]3C2)ncn1 65.7
CCS(=O)(=O)N1C[C@@H]2COC[C@@H](Cc3nc(C)no3)[C@@H]2C1 12.1

query: Dear colleague, please send me the reported INHIBITION for O=C(O)c1cnc(N2CCC(O)CC2)nc1COc1cccc(F)c1 when you can.
result: 6.67

query: Dear colleague, please send me the reported INHIBITION for CC(C)SCc1cccc(NC(=O)NCCc2nnc[nH]2)c1 when you can.
result: 56.3
